test: gradient 5% acetonitrile 3 min, to 50% in 2 min, to 85% in 15 min, held 3 min, 100 µL/min; conditions: column: Zorbax Extend-C18 2.1 x 50 mm; eluents: water / acetonitrile, 0.1% formic acid
Measured Metric: RP-LC retention time (s)

molecule=CC(C)NC(=O)CN1CCN(c2ncc(C(=O)NCc3ccccc3)c(N)n2)CC1 reported_measurement=593
molecule=CC(C)OC(=O)CCC/C=C\C[C@@H]1[C@@H](/C=C/[C@@H](O)COc2cccc(C(F)(F)F)c2)[C@H](O)C[C@@H]1O reported_measurement=955

1 = Clc1ccc(-c2ccnc3nc(-c4ccccc4)nn23)cc1
2 = Cc1nc(Nc2ccc(Br)cn2)sc1C(=O)N1CCN(C)CC1
Problem: Compare 1 and 2 and name the one whose reported RP-LC retention time is smaller. # respond with the chosen item's label
Solution: 2
(2: 606 s, 1: 971 s)

---

assay: gradient 5% acetonitrile 3 min, to 50% in 2 min, to 85% in 15 min, held 3 min, 100 µL/min; conditions: column: Zorbax Extend-C18 2.1 x 50 mm; eluents: water / acetonitrile, 0.1% formic acid
Measured Metric: RP-LC retention time (s)

Below are worked cases with known answers.
compound=O=C(NCc1nnnn1C1CCCCC1)C1CC1 measured_metric="RP-LC retention time" units_of_measure=s reported_measurement=647
compound="CCc1nc(NC(=O)C2CC(=O)N(c3n[nH]c4cccc(F)c34)C2)sc1C (stereo not given)" measured_metric="RP-LC retention time" units_of_measure=s reported_measurement=740
compound=CCOc1ccc(Cl)cc1S(=O)(=O)N1CCC(C(=O)NCCO)CC1 measured_metric="RP-LC retention time" units_of_measure=s reported_measurement=692
compound=O=C(NCc1ccc2c(c1)OCO2)C1CCN(c2cnc3nccnc3c2)CC1 measured_metric="RP-LC retention time" units_of_measure=s reported_measurement=659
compound="CCOCCCNC(=O)C1CCCN(S(=O)(=O)c2ccc3c(ccn3C)c2)C1 (stereo not given)" measured_metric="RP-LC retention time" units_of_measure=s reported_measurement=788
compound=O=C(Nc1ccc(Cl)cc1)N1CCC(N2CCN(Cc3ccccc3)C(=O)C2=O)CC1 measured_metric="RP-LC retention time" units_of_measure=s reported_measurement=764
compound="CCC1CN(C(=O)N2CCC(C(=O)NCCN3CCN(C)CC3)CC2)c2cc(C)ccc2O1 (stereo not given)" measured_metric="RP-LC retention time" units_of_measure=s reported_measurement=619
compound=COC(=O)N(C)c1c(N)nc(-c2nn(Cc3ccccc3F)c3ncccc23)nc1N measured_metric="RP-LC retention time" units_of_measure=s reported_measurement=729
compound=CCc1nc(OCC(=O)Nc2ccc(C)cc2Cl)c2ccccc2n1 measured_metric="RP-LC retention time" units_of_measure=s reported_measurement=885
compound=CCc1cccc(NC(=O)Cc2cn3cc(F)ccc3n2)c1 measured_metric="RP-LC retention time" units_of_measure=s reported_measurement=638

1 = Cc1cccc(C)c1NC(=O)C1CCCN1S(=O)(=O)c1cc2c(cc1Cl)NC(=O)CO2 (stereo not given)
2 = COc1cccc(N2CCN(S(=O)(=O)c3cc(-c4cc(C(F)(F)F)[nH]n4)sc3C)CC2)c1
Problem: From the items above, decide which of 1 and 2 has the lower RP-LC retention time reading. Field: selected label. Fill in the label of the entry you choose.
Solution: 1

---

assay: gradient 5% acetonitrile 3 min, to 50% in 2 min, to 85% in 15 min, held 3 min, 100 µL/min; details: column: Zorbax Extend-C18 2.1 x 50 mm; eluents: water / acetonitrile, 0.1% formic acid
Measured Metric: RP-LC retention time (s)

compound=O=C(Cc1csc(Nc2ncccn2)n1)N1CCN(c2cccc(Cl)c2Cl)CC1 reported_measurement=838
compound=Cc1ccc(-c2nc(CN3CCN(C(=O)NC4CCCC4)CC3)c(C)o2)cc1 reported_measurement=677
compound="CN(C)CC1CN(C(=O)COc2ccccc2)CC12CCOCC2 (stereo not given)" reported_measurement=599
compound="O=C(c1cccnc1)N1CCCCC1c1nncn1-c1ccccc1 (stereo not given)" reported_measurement=596
compound=O=C(c1cn(-c2cc(N3CCSCC3)ncn2)cn1)N1CCN(c2ccccn2)CC1 reported_measurement=624

---

assay: gradient 5% acetonitrile 3 min, to 50% in 2 min, to 85% in 15 min, held 3 min, 100 µL/min; conditions: column: Zorbax Extend-C18 2.1 x 50 mm; eluents: water / acetonitrile, 0.1% formic acid
Measured Metric: RP-LC retention time (s)

A = O=C(CCC(=O)N1CC2CCCN2c2ccccc21)NCCCN1CCCC1 (centres undefined)
B = COc1ccc(-c2nc(NCCC3=CCCCC3)c3ccccc3n2)cc1
Problem: Compare A and B by numeric RP-LC retention time and name the larger one. Bench note: the answer is the label of the chosen record.
Solution: B
(B: 933 s, A: 627 s)

I = Cc1csc(-c2cc(S(=O)(=O)NCCN3CCCCC3C)cn2CC(=O)N2CCCCC2)n1 (centres undefined)
II = O=C1COc2ccccc2N1Cc1nc(-c2ccc(F)c(Br)c2)no1
Problem: Looking at I and II , which one comes out lower in RP-LC retention time terms? # respond with the chosen item's label
Solution: I

I = COc1ccc(CNC(=O)C2CCCN(c3nnc4ccc(Cl)cn34)C2)c(OC)c1 (centres undefined)
II = CCc1ccc(-c2ccc(=O)n(Cc3nc(-c4ccc5c(c4)OCO5)no3)n2)cc1
Problem: Would you kindly point out which of I and II has the smaller RP-LC retention time figure? Please identify the chosen entry by its label.
Solution: I
(I: 753 s, II: 1080 s)

---

assay: gradient 5% acetonitrile 3 min, to 50% in 2 min, to 85% in 15 min, held 3 min, 100 µL/min; details: column: Zorbax Extend-C18 2.1 x 50 mm; eluents: water / acetonitrile, 0.1% formic acid
Measured Metric: RP-LC retention time (s)

compound="COc1cccc(N2C(=O)C3N=NN(Cc4nc(-c5ccccc5C)no4)C3C2=O)c1 (stereo not given)" measured_metric="RP-LC retention time" reported_measurement=976

P = CCOc1ccc(Nc2c(-c3ccc(N(C)C)cc3)nc3cnccn23)cc1
Q = Cc1ccc(-c2nnc(SCc3cccc(Cl)c3)o2)cc1
Problem: Field: lower recorded RP-LC retention time (choose P or Q ) Write down the label of the entry you select.
Solution: P
(P: 813 s, Q: 1210 s)

---

test: gradient 5% acetonitrile 3 min, to 50% in 2 min, to 85% in 15 min, held 3 min, 100 µL/min; settings: column: Zorbax Extend-C18 2.1 x 50 mm; eluents: water / acetonitrile, 0.1% formic acid
Measured Metric: RP-LC retention time (s)

compound=CCc1ccc(-n2nnc(C(=O)NCCOC)c2-c2ccncc2)cc1 units_of_measure=s reported_measurement=725
compound=COc1ccc(CNC(=O)Cc2nnc(-c3ccc4ncccc4c3)o2)c(OC)c1 units_of_measure=s reported_measurement=841
compound="Cc1ccc(N2C(=O)CC(N3CCC(C(N)=O)CC3)C2=O)c(Cl)c1 (stereo not given)" units_of_measure=s reported_measurement=614
compound=O=C1COc2ccc(S(=O)(=O)N3CCC(C(=O)Nc4ccccc4)CC3)cc2N1 units_of_measure=s reported_measurement=759
compound=Cn1nc(-c2nnc(-c3ccc(F)cc3)o2)c2c1CCN(S(=O)(=O)c1cccc(Cl)c1)C2 units_of_measure=s reported_measurement=987
compound=O=C(N[C@H]1C[C@@H]2C[C@H]1N(C(=O)c1ccccc1C(F)(F)F)C2)c1ccccc1 units_of_measure=s reported_measurement=778
compound="CC(NC(=O)c1cc(-c2ccccc2)cn1C)c1ccccn1 (stereo not given)" units_of_measure=s reported_measurement=703
compound=CN1C(=O)c2ccccc2Oc2ccc(C(=O)NCc3ccc(Br)cc3)cc21 units_of_measure=s reported_measurement=955

P = O=C(CCc1csc(NC(=O)c2cccs2)n1)Nc1ccc(F)c(Cl)c1
Q = Cc1cccc(S(=O)(=O)N2CCc3nc[nH]c3C2)c1
Problem: Please choose the item with the lower RP-LC retention time value from this pair: P and Q Reply briefly: the label of your chosen item.
Solution: Q

---

test: gradient 5% acetonitrile 3 min, to 50% in 2 min, to 85% in 15 min, held 3 min, 100 µL/min; conditions: column: Zorbax Extend-C18 2.1 x 50 mm; eluents: water / acetonitrile, 0.1% formic acid
Measured Metric: RP-LC retention time (s)

given_smiles=O=C(Nc1ccc2nc3n(c(=O)c2c1)CCCC3)Nc1ccc(Br)cc1F measured_metric="RP-LC retention time" units_of_measure=s reported_measurement=782
given_smiles=Cc1ccc(-c2nc(C(=O)N3CCN(c4ccccc4)CC3)cs2)n1C measured_metric="RP-LC retention time" units_of_measure=s reported_measurement=1080
given_smiles=Clc1ccc2nc(-c3ccccc3)c(Nc3ccc4c(c3)OCCO4)n2c1 measured_metric="RP-LC retention time" units_of_measure=s reported_measurement=746
given_smiles=O=c1n(Cc2ccccc2Cl)nc2n1CCCCC2 measured_metric="RP-LC retention time" units_of_measure=s reported_measurement=768
given_smiles=Cc1ccc(NC(=O)Cc2csc3nc(-c4ccc(C)c(C)c4)cn23)cc1 measured_metric="RP-LC retention time" units_of_measure=s reported_measurement=884
given_smiles=Cc1ccc(-c2csc(NC(=O)CSc3nnc(-c4cc5ccccc5o4)n3C)n2)cc1 measured_metric="RP-LC retention time" units_of_measure=s reported_measurement=1050
given_smiles=COc1ccc(CC(=O)Nc2cc(-c3cccnc3)no2)cc1 measured_metric="RP-LC retention time" units_of_measure=s reported_measurement=708
given_smiles=CN1C(=O)c2cccnc2Sc2cc(NC(=O)C3CCCCC3)ccc21 measured_metric="RP-LC retention time" units_of_measure=s reported_measurement=828
given_smiles=Cc1c(-c2noc(-c3ccccc3F)n2)nnn1Cc1cccc(F)c1 measured_metric="RP-LC retention time" units_of_measure=s reported_measurement=1050
given_smiles=O=S(=O)(c1ccc(-c2cnc(C3CCCC3)o2)s1)N1CCN(c2ccccn2)CC1 measured_metric="RP-LC retention time" units_of_measure=s reported_measurement=842

FYI, the data here is from the METLIN SMRT retention time set (Domingo-Almenara et al. 2019).
